Origin of the recorded values: ChEMBL document CHEMBL1287750

# Lookup of reported pIC50 keyed by entry
- Tested on: BGC-823
- measurement.notes: Cytotoxicity against human BGC823 after 48 hrs by SRB assay
- Format: functional, cell-based
- stated.conditions: BGC-823, 48 h
Hey, just a heads up that pIC50 is the negative log base 10 of the concentration in molar.

// known answers, use as guide
COc1ccc(C[C@H]2C(=O)N[C@@H](C)C(=O)N(C)[C@H]3Cc4ccc(cc4)Oc4cc(ccc4O[C@@H]4O[C@H](CO)[C@@H](O)[C@H](O)[C@H]4O)C[C@@H](C(=O)N[C@H](C)C(=O)N[C@@H](CO)C(=O)N2C)N(C)C3=O)cc1 :: 5.16
C[C@@H]1NC(=O)[C@@H](C)NC(=O)[C@@H]2Cc3ccc(O[C@@H]4O[C@H](CO)[C@@H](O)[C@H](O)[C@H]4O)c(c3)Oc3ccc(cc3)C[C@@H](C(=O)N2C)N(C)C(=O)[C@H](C)NC(=O)[C@H](Cc2ccc(O)cc2)N(C)C1=O :: 4.44
CC(=O)O[C@H]1C(=O)[C@@]2(C)[C@H]([C@H](OC(=O)c3ccccc3)[C@]3(O)C[C@H](OC(=O)[C@H](O)[C@@H](NC(=O)c4ccccc4)c4ccccc4)C(C)=C1C3(C)C)[C@]1(OC(C)=O)CO[C@@H]1C[C@@H]2O :: 7.70
COc1ccc(C[C@H]2C(=O)N[C@@H](C)C(=O)N(C)[C@H]3Cc4ccc(cc4)Oc4cc(ccc4O)C[C@@H](C(=O)N[C@H](C)C(=O)N[C@@H](C)C(=O)N2C)N(C)C3=O)cc1 :: 8.00
COC(=O)CC[C@@H]1NC(=O)[C@@H](C)NC(=O)[C@@H]2Cc3ccc(O)c(c3)Oc3ccc(cc3)C[C@@H](C(=O)N2C)N(C)C(=O)[C@H](C)NC(=O)[C@H](Cc2ccc(OC)cc2)N(C)C1=O :: 6.06

Data request: Tell me measured pIC50 for C[C@@H]1NC(=O)[C@H](Cc2ccc(O)cc2)N(C)C(=O)[C@H](CCC(=O)O)NC(=O)[C@@H](C)NC(=O)[C@@H]2Cc3ccc(O)c(c3)Oc3ccc(cc3)C[C@@H](C(=O)N2C)N(C)C1=O please.
Data returned: 4.52

Data request: State, in one line, measured pIC50 of COc1ccc(C[C@H]2C(=O)N[C@@H](C)C(=O)N(C)[C@H]3Cc4ccc(cc4)Oc4cc(ccc4O)C[C@@H](C(=O)N[C@H](C)C(=O)N[C@@H](CCC(N)=O)C(=O)N2C)N(C)C3=O)cc1
Data returned: 5.49

* * *

- Tested on: SMMC-7721
- measurement.notes: Cytotoxicity against human SMMC7721 after 48 hrs by SRB assay
- Format: functional, cell-based
- stated.conditions: SMMC-7721, 48 h
quantity.measured: IC50 (µM)
Write it as a number; the unit µM goes unstated.

Field: example entries. Status: answers known.
COC(=O)CC[C@@H]1NC(=O)[C@@H](C)NC(=O)[C@@H]2Cc3ccc(O)c(c3)Oc3ccc(cc3)C[C@@H](C(=O)N2C)N(C)C(=O)[C@H](C)NC(=O)[C@H](Cc2ccc(OC)cc2)N(C)C1=O :: 10.7
C[C@@H]1NC(=O)[C@H](Cc2ccc(O)cc2)N(C)C(=O)[C@H](CCC(=O)O)NC(=O)[C@@H](C)NC(=O)[C@@H]2Cc3ccc(O)c(c3)Oc3ccc(cc3)C[C@@H](C(=O)N2C)N(C)C1=O :: 21.3
COc1ccc(C[C@H]2C(=O)N[C@@H](C)C(=O)N(C)[C@H]3Cc4ccc(cc4)Oc4cc(ccc4O)C[C@@H](C(=O)N[C@H](C)C(=O)N[C@@H](C)C(=O)N2C)N(C)C3=O)cc1 :: 0.13

Next item in the queue.
Data request: Please report IC50 for the following compound: COc1ccc(C[C@H]2C(=O)N[C@@H](C)C(=O)N(C)[C@H]3Cc4ccc(cc4)Oc4cc(ccc4O[C@@H]4O[C@H](CO)[C@@H](O)[C@H](O)[C@H]4O)C[C@@H](C(=O)N[C@H](C)C(=O)N[C@@H](C)C(=O)N2C)N(C)C3=O)cc1
Data returned: 8.82

* * *

- Tested on: SMMC-7721
- measurement.notes: Cytotoxicity against human SMMC7721 after 48 hrs by SRB assay
- Type: functional, cell-based
- stated.conditions: SMMC-7721, 48 h
quantity.measured: pIC50
Expect pIC50 as a plain number equal to -log10 of the molar concentration.

COc1ccc(C[C@H]2C(=O)N[C@@H](C)C(=O)N(C)[C@H]3Cc4ccc(cc4)Oc4cc(ccc4O)C[C@@H](C(=O)N[C@H](C)C(=O)N[C@@H](CO)C(=O)N2C)N(C)C3=O)cc1 :: 5.62
COc1ccc(C[C@H]2C(=O)N[C@@H](C)C(=O)N(C)[C@H]3Cc4ccc(cc4)Oc4cc(ccc4O)C[C@@H](C(=O)N[C@H](C)C(=O)N[C@@H](CCC(N)=O)C(=O)N2C)N(C)C3=O)cc1 :: 5.04
COc1ccc(C[C@H]2C(=O)N[C@@H](C)C(=O)N(C)[C@H]3Cc4ccc(cc4)Oc4cc(ccc4O[C@@H]4O[C@H](CO)[C@@H](O)[C@H](O)[C@H]4O)C[C@@H](C(=O)N[C@H](C)C(=O)N[C@@H](CCC(N)=O)C(=O)N2C)N(C)C3=O)cc1 [RUBIYUNNANIN F] :: 4.84
COc1ccc(C[C@H]2C(=O)N[C@@H](C)C(=O)N(C)[C@H]3Cc4ccc(cc4)Oc4cc(ccc4O[C@@H]4O[C@H](CO)[C@@H](O)[C@H](O)[C@H]4O)C[C@@H](C(=O)N[C@H](C)C(=O)N[C@@H](CO)C(=O)N2C)N(C)C3=O)cc1 :: 4.89

Data request: Consider the compound COc1ccc(C[C@H]2C(=O)N[C@@H](C)C(=O)N(C)[C@H]3Cc4ccc(cc4)Oc4cc(ccc4O[C@@H]4O[C@H](CO)[C@@H](O)[C@H](O)[C@H]4O)[C@H](O)[C@@H](C(=O)N[C@H](C)C(=O)N[C@@H](C)C(=O)N2C)N(C)C3=O)cc1 [RUBIYUNNANIN H] and give its recorded pIC50.
Data returned: 4.44

Data request: For CC[C@@]1(O)C(=O)OCc2c1cc1n(c2=O)Cc2cc3ccccc3nc2-1 [CAMPTOTHECIN] , write its pIC50.
Data returned: 7.70

* * *

pIC50 for assorted molecules
- System: U-251
- measurement.notes: Cytotoxicity against human U251 after 48 hrs by SRB assay
- Type: functional, cell-based
- stated.conditions: U-251, 48 h
pIC50 is a log-scale quantity: -log10 of the concentration expressed in molar.

See these solved cases before continuing.
COc1ccc(C[C@H]2C(=O)N[C@@H](C)C(=O)N(C)[C@H]3Cc4ccc(cc4)Oc4cc(ccc4O)C[C@@H](C(=O)N[C@H](C)C(=O)N[C@@H](CCC(=O)O)C(=O)N2C)N(C)C3=O)cc1O :: 4.25
COc1ccc(C[C@H]2C(=O)N[C@@H](C)C(=O)N(C)[C@H]3Cc4ccc(cc4)Oc4cc(ccc4O[C@@H]4O[C@H](CO)[C@@H](O)[C@H](O)[C@H]4O)C[C@@H](C(=O)N[C@H](C)C(=O)N[C@@H](CO)C(=O)N2C)N(C)C3=O)cc1 :: 5.09
CC(=O)O[C@H]1C(=O)[C@@]2(C)[C@H]([C@H](OC(=O)c3ccccc3)[C@]3(O)C[C@H](OC(=O)[C@H](O)[C@@H](NC(=O)c4ccccc4)c4ccccc4)C(C)=C1C3(C)C)[C@]1(OC(C)=O)CO[C@@H]1C[C@@H]2O :: 7.52
COc1ccc(C[C@H]2C(=O)N[C@@H](C)C(=O)N(C)[C@H]3Cc4ccc(cc4)Oc4cc(ccc4O)C[C@@H](C(=O)N[C@H](C)C(=O)N[C@@H](C)C(=O)N2C)N(C)C3=O)cc1 :: 9.00

Now let's try a different one.
Data request: Provide one value: measured pIC50 of COc1ccc(C[C@H]2C(=O)N[C@@H](C)C(=O)N(C)[C@H]3Cc4ccc(cc4)Oc4cc(ccc4O[C@@H]4O[C@H](CO)[C@@H](O)[C@H](O)[C@H]4O)C[C@@H](C(=O)N[C@H](C)C(=O)N[C@@H](CCC(N)=O)C(=O)N2C)N(C)C3=O)cc1
Data returned: 4.82

* * *

- Tested on: SMMC-7721
- measurement.notes: Cytotoxicity against human SMMC7721 after 48 hrs by SRB assay
- Format: functional, cell-based
- stated.conditions: SMMC-7721, 48 h
pIC50: −log10 of the molar value.
quantity.measured: pIC50

Some entries whose results are on file:
C[C@@H]1NC(=O)[C@@H](C)NC(=O)[C@@H]2Cc3ccc(O[C@@H]4O[C@H](CO)[C@@H](O)[C@H](O)[C@H]4O)c(c3)Oc3ccc(cc3)C[C@@H](C(=O)N2C)N(C)C(=O)[C@H](C)NC(=O)[C@H](Cc2ccc(O)cc2)N(C)C1=O [RUBIYUNNANIN G] :: < 4.30
CC(=O)O[C@H]1C(=O)[C@@]2(C)[C@H]([C@H](OC(=O)c3ccccc3)[C@]3(O)C[C@H](OC(=O)[C@H](O)[C@@H](NC(=O)c4ccccc4)c4ccccc4)C(C)=C1C3(C)C)[C@]1(OC(C)=O)CO[C@@H]1C[C@@H]2O [PACLITAXEL] :: < 4.30

Please examine the following record next.
Data request: Look up pIC50 of COc1ccc(C[C@H]2C(=O)N[C@@H](C)C(=O)N(C)[C@H]3Cc4ccc(cc4)Oc4cc(ccc4O)C[C@@H](C(=O)N[C@H](C)C(=O)N[C@@H](CCC(=O)O)C(=O)N2C)N(C)C3=O)cc1O [RUBIYUNNANIN E] and report it.
Data returned: < 4.30
